I'd be grateful if you could share measured z-score for these entries.
ASSAY_TEXT: P. aeruginosa biofilm formation inhibitors, primary screen, PAO1 strain, BacTiter-Glo luminescence, LB-PBS (AID 1144)
EXPERIMENTAL_PARAMETERS: 12 h, higher = more signal
Please respond with just the number, no unit label.

Prompt line: Give its z-score value. Item: "COCCOC(=O)N1C(=O)[C@@]2(c3cc(C#CCC(C(=O)OC)C(=O)OC)ccc31)[C@H](C(=O)N1CCCCCCC1)[C@H]1C(=O)O[C@H](c3ccccc3)[C@H](c3ccccc3)N1[C@@H]2c1ccc(OCCO)cc1"
Response line: -1.02

Prompt line: Which z-score value is on record for "COc1ccc(C#Cc2ccc3c(c2)[C@]2(C(=O)N3)[C@H](c3ccc(O)cc3)N3[C@H](c4ccccc4)[C@H](c4ccccc4)OC(=O)[C@H]3[C@@H]2C(=O)NC[C@H](O)c2ccccc2)cc1" ?
Response line: -0.654

Prompt line: What value of z-score has been reported for the following compound? "CC1=C2[C@@H](CCc3ccccc3)OB(O)C[C@@H]2n2c(=O)n(-c3ccccc3)c(=O)n2C1"
Response line: 0.909

Prompt line: Return reported z-score; argument: "O=c1cccc(C=Cc2ccccc2)o1"
Response line: -0.544

Prompt line: What value of z-score has been reported for the following compound? "C=C[C@@H](COC(C)=O)N(Cc1ccccc1[N+](=O)[O-])S(=O)(=O)c1ccc(Br)cc1"
Response line: -1.65

Prompt line: GET /values?readout=z-score&item= "COCCOC(=O)N1C(=O)[C@@]2(c3cc(C#CCNC(N)=O)ccc31)[C@H](c1ccc(O)cc1)N1[C@H](c3ccccc3)[C@H](c3ccccc3)OC(=O)[C@H]1[C@@H]2C(=O)Nc1nc2ccccc2s1"
Response line: -2.43

Prompt line: Quick check: z-score of "COCC(=C=CC[C@@H](O)c1ccc(CO)o1)CCO" ?
Response line: -1.23

Prompt line: Requested read-out: z-score. Entry: "CCOC(=O)C1=CC[C@@H](c2ccccc2)N(S(=O)(=O)c2ccc(C)cc2)[C@H]1C(=O)OCC"
Response line: 1.43

Prompt line: May I ask what z-score has been recorded for O=C1OCCC=C[C@H]2OC34C=CCN(Cc5ccccc5)C(=O)[C@H]3N(CCCO)C(=O)[C@@H]4C12 (stereo not given in full) ?
Response line: -2.36

Prompt line: Could you share which z-score value was measured for O=C1OCC=C[C@H]2OC34C=CCN(c5ccc6ccccc6c5)C(=O)[C@H]3N(CCCO)C(=O)[C@@H]4[C@@H]12 (stereo not given in full) ?
Response line: 0.179

Prompt line: Entry under review: "CN(C)CCCCNC(=O)[C@H]1C[C@H]2C(=O)N[C@@H](Cc3ccccc3)C(=O)N2[C@H]1c1ccc(O)cc1" . Reported z-score?
Response line: -1.49

Prompt line: z-score for "Cc1c(NC(=O)CC#N)c(=O)n(-c2ccccc2)n1C" ?
Response line: -0.739

Prompt line: Consider the compound "CC(C)C(=C=CC[C@H](O)c1ccccc1OCCO)C[C@H](O)c1ccccn1" and give its measured z-score.
Response line: -0.0531

Prompt line: Entry "COc1cc2c(cc1OC)CN(C(=O)[C@@H]1[C@H]3C(=O)O[C@H](c4ccccc4)[C@H](c4ccccc4)N3[C@H](c3ccccc3OCCO)[C@@]13C(=O)Nc1ccc(C#CCNC(N)=O)cc13)CC2" has what z-score?
Response line: -0.105

Prompt line: // z-score lookup, key: "COc1c(C)cc(-c2cc3c(c(-c4ccc(Oc5ccccc5)cc4)n2)[Si](C(C)C)(C(C)C)OC3)cc1C"
Response line: 0.0144
